Recorded values, source patent US20250314655A1.

Kindly state TRBC1 Binding for each of the entries shown.
Target: TRBC1 peptide (biotinylated) (human)
Assay: TRF assay, scFv on biotin-peptide/neutravidin plate
Just so you know, I need the unit written after the number.

>  <BINDER>
CP_03_G09 (scFv, not shown: small tags and cut ends) scFv: QVQLQQSGPGLVKPSQTLSLTCAISGDSVSSNSAAWNWIRQSPSRGLEWLGRTYYRSKWYNDYAVSVKSRITINPDTSKNQFSLQLNSVTPEDTAVYYCARDQWLANYYYYGMDVWGQGTLVTVSSGGGGSGGGGSGGGASSYELTQPLSVSVALGQTARITCGGNNIGSKNVHWYQQKPGQAPVLVIYRDNNRPSGIPERFSGSNSGNTATLTISKAQAGDEADYYCQVWDSNSWVFGGGTKLTVLGQPAA

>  <MEASURED_METRIC>
TRBC1 Binding

>  <VALUE_MEASURED>
979 TRF units

$$$$

// moving on: another record for TRBC1 Binding
Sure, the documented TRBC1 Binding for CP_03_H06 (scFv, not shown: small tags and cut ends) scFv: QVQLVESGGGLVKPGGSLRLSCAASGFTFSDYYMSWIRQAPGKGLEWVSYISSSGSTIYYADSVEGRFTISRDNAKNSLYLQMNSLRTEDTAVYYCARARVGGMDVWGQGTMVTVSSGGGGSGGGGSGGGASNFMLTQPHSVSESPGKTVTISCTRSSGSIASNYVQWYQQRPGSSPTTVIYEDNQRPSGVPDRFSGSIDSSSNSASLTISGLKTEDEADYYCQSFDADNLHVVFGGGTKLTVLGQPAA is 391 TRF units
